Test system: MS2 coat protein
methodNotes: apparent KD of MS2 coat protein; designed switch direction (-1 OFF switch, 1 ON switch): 1; higher = weaker reporter binding
experimentalSetup: input ligand: none
Each entry gets Not fulfilled if its apparent KD of MS2 coat protein stays under 100 nM, and Fulfilled if its apparent KD of MS2 coat protein is 100 nM or above.

biopolymersequence="GGUGCCAAAUAAGCCUACAUGAGGAUCACCCAUGUAUGUAGGCAGGAUAUCGUAUGCAAAGCAUACGAGAAGGGCCGAGGCACC [Mat - Same State NG 3 - JL Mod - D57] (Eterna round: R96, puzzle: Same State NG 3)" group="Not fulfilled"
biopolymersequence="GCGCAGCUGCGCAAUAUUACAUGAGGAUCACCCAUGUUGUCACAGGAUAUGCUGGACAGCGUCGAGCAGAAGGGUGACCAAACA [Zasovexe] (Eterna round: R96, puzzle: Same State NG 3)" group=Fulfilled
biopolymersequence="UAAAGCGACGUAGGAUAUCCUCUACAUGCGUAAGGAGAAGGAUGCGCAACAUGAGGAUCACCCAUGUAAAACCAGCACUGCUGG [Isaerte] (Eterna round: R96, puzzle: Same State NG 1)" group="Not fulfilled"
biopolymersequence="GUGGUCAGACAUGAGGAUCACCCAUGUGGAAUAAAUAAGGGACAGGAUAUCUAAUAUAGGAUAUAAGAGAAGGGUUGGUUGGUG (Eterna round: R96, puzzle: Same State NG 3)" group="Not fulfilled"
biopolymersequence="AUUAUCUAUGCAGGAUAUGAUUAACAUGAGGAUCACCCAUGUGGUGUUGUGAGUAAGGAGAGUGAUCAGAAGGGCAUUUUUUUU [JMF's solution 65] (Eterna round: R96, puzzle: Same State NG 2)" group=Fulfilled
biopolymersequence="AGGAGACAUGAGGAUCACCCAUGUACUUCAUAAGGAGAGAACGAGGAUAUGUAGAGAGAGAGGGAACAGAAGGUGUGAGAGGAA [Default title] (Eterna round: R96, puzzle: Same State NG 3)" group="Not fulfilled"
biopolymersequence="AUGGGCAUGCUAGGAUAUUAUAGUAGGCAGCAAUGAGAAGGAGUAUCCCGUUGCUAUCACGCACCACAUGAGGAUCACCCAUGU [Eternabot solution 32] (Eterna round: R96, puzzle: Same State NG 1)" group="Not fulfilled"
biopolymersequence="AGCUAGUACGAAGGAUAUACAAACAUGAGGAUCACCCAUGUAUACAUGGUUUGUUGUGACUACAUGUAGAAGGUCGUACUAGCA [SameState NG2 #16] (Eterna round: R96, puzzle: Same State NG 2)" group=Fulfilled
biopolymersequence="GUUACAUGAGGAUCACCCAUGUAUGUGUGGGAGUAAGUGUCUUAGGAUAUCUAGUAAUUAAUUUAAGAGAAGGAAGAUUGUUGU [JMF's solution 54] (Eterna round: R96, puzzle: Same State NG 3)" group=Fulfilled
biopolymersequence="AGCUAGUACCGAGGAUAUACAUACAUGAGGAUCACCCAUGUAUACAUGAAAUAAUGAGACUACAUGUAGAAGGCGGUACUAGCA [Mat - Same State NG 2 - JL mod - D45] (Eterna round: R96, puzzle: Same State NG 2)" group="Not fulfilled"
biopolymersequence="AAUUAAGAUCAAGGAUAUCACGUCGAAUAGACGUGAGAAGGUGAUAAUUACAUGAGGAUCACCCAUGUAUAACAUGAAUUAAUU [SSNG1/9-B1] (Eterna round: R96, puzzle: Same State NG 1)" group="Not fulfilled"
biopolymersequence="CACAUGAGGAUCACCCAUGUGAGGCGGCAAUAAAACCGCGCACAGGAUAUAGCGCUAAGAAAGCGCUAGAAGGGUGAUUAGAAC [Gerelabies] (Eterna round: R96, puzzle: Same State NG 3)" group="Not fulfilled"
biopolymersequence="AGUCCUGCCUGAGCAGGACAAAAGCAUGUACAUGAGGAUCACCCAUGUCAUGUACAAGCUUUUUGCUCGUCUUAAUA [Mat - hsa-mir-208a - Mod of JL - D41] (Eterna round: R96, puzzle: Sensor for hsa-mir-208a)" group=Fulfilled
biopolymersequence="AGCUAGGUGGCAGGAUAUGGGCACACCUACAUGAGGAUCACCCAUGUCUAAAGGUUGCAAAAGGACCAGAAGGGCCACGCUAGC [Onzaislege] (Eterna round: R96, puzzle: Same State NG 2)" group=Fulfilled
biopolymersequence="GAGUAGUUGAAAGGAUAUUGAUUGUUAUAGGAUCAAGAAGGUUCUAACAUGAGGAUCACCCAUGUAGGACUAUUCCUGUGUAUC [Parity 83 - Jieux - Same State NG 1] (Eterna round: R96, puzzle: Same State NG 1)" group="Not fulfilled"
biopolymersequence="UUGAAGAAUUAAGGAUAUCGAGUCGUCUAAUUAAACAUGAGGAUCACCCAUGUGGGUUGUGGUAUCGAGAAGGUAAAUUACUAA [JR_SSNG2_Sub099] (Eterna round: R96, puzzle: Same State NG 2)" group="Not fulfilled"
biopolymersequence="AGAACAUGACGAGGAUAUGGAACAUGAGGAUCACCCAUGUAUGUUCCAUAACGCGAAUAAAGAAUCCAGAAGGCGUCGUGAAGA [Mat - Same State NG 2 - JL mod - D32] (Eterna round: R96, puzzle: Same State NG 2)" group=Fulfilled
biopolymersequence="AGUAGUUUAACAUGAGGAUCACCCAUGUAUUUUUCUGUAACCUAGGAUAUGGGCGUUGUAUUUAUCCAGAAGGAGGAUCGUUUA [JR_SSNG3_Sub048] (Eterna round: R96, puzzle: Same State NG 3)" group="Not fulfilled"
